protocol: Selectivity index, ratio of CC50 for human MT4 cells to EC50 for HIV-1 3B infected in MT4 cells
Assay type: toxicity, cell-based
measurement.parameters: HIV-1 3B infected MT4 cells, read-out: Ratio CC50/EC50
I'd be grateful if you could share measured selectivity ratio for these entries.
// response body must contain only the number

Documented selectivity ratio of Cc1ccccc1NC1=Nc2ccc(Cl)cc2C(C#CC2CC2)(C(F)(F)F)N1 (centres undefined) : 30

Documented selectivity ratio of Cc1ccc(NC2=Nc3ccc(Cl)cc3C(C#CC3CC3)(C(F)(F)F)N2)cc1C (centres undefined) : 8

Documented selectivity ratio of Cc1cccc(NC2=Nc3ccc(Cl)cc3C(C#CC3CC3)(C(F)(F)F)N2)c1 (centres undefined) : 10

Documented selectivity ratio of Fc1ccc(NC2=Nc3ccc(Cl)cc3C(C#CC3CC3)(C(F)(F)F)N2)cc1F (centres undefined) : 5

Documented selectivity ratio of COc1ccccc1NC1=Nc2ccc(Cl)cc2C(C#CC2CC2)(C(F)(F)F)N1 (centres undefined) : 58

Documented selectivity ratio of N#Cc1ccc(NC2=Nc3ccc(Cl)cc3C(C#CC3CC3)(C(F)(F)F)N2)cc1 (centres undefined) : 2300

Documented selectivity ratio of Fc1ccc(NC2=Nc3ccc(Cl)cc3C(C#CC3CC3)(C(F)(F)F)N2)cc1 (centres undefined) : 9

Documented selectivity ratio of O=[N+]([O-])c1cccc(NC2=Nc3ccc(Cl)cc3C(C#CC3CC3)(C(F)(F)F)N2)c1 (centres undefined) : 14

Documented selectivity ratio of FC(F)(F)C1(C#CC2CC2)NC(Nc2ccccc2)=Nc2ccc(Cl)cc21 (centres undefined) : 21

Documented selectivity ratio of Fc1ccc(NC2=Nc3ccc(Cl)cc3C(C#CC3CC3)(C(F)(F)F)N2)cc1Cl (centres undefined) : 10

Documented selectivity ratio of COc1cccc(NC2=Nc3ccc(Cl)cc3C(C#CC3CC3)(C(F)(F)F)N2)c1 (centres undefined) : 44

Documented selectivity ratio of N#Cc1cccc(NC2=Nc3ccc(Cl)cc3C(C#CC3CC3)(C(F)(F)F)N2)c1 (centres undefined) : 5

###

protocol: Cytotoxicity against human MT4 cells measured after 5 days by MTT assay
Assay type: cell-based
parameter: CC50 at 120 h (nM)
Answer with a number only, understood to be in nM.

Documented CC50 at 120 h of Cc1ccc(NC2=Nc3ccc(Cl)cc3C(C#CC3CC3)(C(F)(F)F)N2)cc1C (configuration not stated) : 5900

Documented CC50 at 120 h of FC(F)(F)C1(C#CC2CC2)NC(Nc2cccc(Br)c2)=Nc2ccc(Cl)cc21 (configuration not stated) : 2100

Documented CC50 at 120 h of Cc1ccc(NC2=Nc3ccc(Cl)cc3C(C#CC3CC3)(C(F)(F)F)N2)cc1 (configuration not stated) : 5000

Documented CC50 at 120 h of N#Cc1ccc(NC2=Nc3ccc(Cl)cc3C(C#CC3CC3)(C(F)(F)F)N2)cc1 (configuration not stated) : 1900

Documented CC50 at 120 h of N#Cc1cccc(NC2=Nc3ccc(Cl)cc3C(C#CC3CC3)(C(F)(F)F)N2)c1 (configuration not stated) : 2200

Documented CC50 at 120 h of Fc1ccc(NC2=Nc3ccc(Cl)cc3C(C#CC3CC3)(C(F)(F)F)N2)cc1F (configuration not stated) : 1800

Documented CC50 at 120 h of Fc1cccc(NC2=Nc3ccc(Cl)cc3C(C#CC3CC3)(C(F)(F)F)N2)c1 (configuration not stated) : 2000

Documented CC50 at 120 h of Fc1ccc(NC2=Nc3ccc(Cl)cc3C(C#CC3CC3)(C(F)(F)F)N2)cc1 (configuration not stated) : 2400

Documented CC50 at 120 h of Cc1cc(C)cc(NC2=Nc3ccc(Cl)cc3C(C#CC3CC3)(C(F)(F)F)N2)c1 (configuration not stated) : 2100

Documented CC50 at 120 h of FC(F)(F)C1(C#CC2CC2)NC(Nc2cccc(Cl)c2)=Nc2ccc(Cl)cc21 (configuration not stated) : 2000

Documented CC50 at 120 h of FC(F)(F)c1cccc(NC2=Nc3ccc(Cl)cc3C(C#CC3CC3)(C(F)(F)F)N2)c1 (configuration not stated) : 3300
